B1: ETS1 (parent)
chain: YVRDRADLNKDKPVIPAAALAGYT

- Variants of: B1
- experimentNotes: protein stability index of a GFP-peptide fusion (GPS, HEK-293T) (PSI 1-6); higher = more stable;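 also: lentivirally expressed fusions sorted by FACS into six bins by GFP to DsRed ratio, PSI derived from sequencing read proportions per bin multiplied by bin number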
- measurementSetup: c terminus: a fixed tail appended
Please enter satisfied where protein stability index is greater than or equal to 2, and not satisfied where it is lower.

>>> categorylabel("Y23H")
"satisfied"
>>> categorylabel("G22K")
"satisfied"
>>> categorylabel("V2K")
"satisfied"
>>> categorylabel("Y1W")
"satisfied"
>>> categorylabel("P13D")
"not satisfied"
>>> categorylabel("P13V")
"satisfied"
>>> categorylabel("D4E")
"not satisfied"
>>> categorylabel("L8K")
"satisfied"
>>> categorylabel("D7P")
"satisfied"
>>> categorylabel("A21F")
"satisfied"
>>> categorylabel("A21I")
"satisfied"
>>> categorylabel("G22M")
"not satisfied"
>>> categorylabel("A17P")
"not satisfied"
>>> categorylabel("R3H")
"not satisfied"
>>> categorylabel("A19L")
"not satisfied"
>>> categorylabel("L8V")
"satisfied"
>>> categorylabel("Y1P")
"satisfied"
>>> categorylabel("R3P")
"satisfied"
>>> categorylabel("G22S")
"not satisfied"
>>> categorylabel("R3D")
"satisfied"
>>> categorylabel("L8E")
"satisfied"
>>> categorylabel("P16Q")
"satisfied"
>>> categorylabel("A19T")
"satisfied"
>>> categorylabel("D11G")
"satisfied"
>>> categorylabel("Y23W")
"satisfied"
>>> categorylabel("V2D")
"satisfied"
>>> categorylabel("V14H")
"satisfied"
>>> categorylabel("L8S")
"not satisfied"
>>> categorylabel("L8T")
"satisfied"
>>> categorylabel("D7V")
"satisfied"
>>> categorylabel("Y23E")
"satisfied"
>>> categorylabel("G22Q")
"satisfied"
>>> categorylabel("P16I")
"satisfied"
>>> categorylabel("T24P")
"satisfied"
>>> categorylabel("D7I")
"satisfied"
>>> categorylabel("D11C")
"satisfied"
>>> categorylabel("A19Q")
"satisfied"
>>> categorylabel("D4S")
"not satisfied"
>>> categorylabel("A6I")
"satisfied"
>>> categorylabel("V2Q")
"satisfied"
>>> categorylabel("R5D")
"satisfied"
>>> categorylabel("P13C")
"not satisfied"
>>> categorylabel("Y1T")
"satisfied"
>>> categorylabel("L8D")
"not satisfied"
>>> categorylabel("L8R")
"not satisfied"
>>> categorylabel("L8A")
"satisfied"
>>> categorylabel("I15Q")
"satisfied"
